Data origin, for the record: paper PMC3818380

- target.entity: interphotoreceptor retinoid-binding protein (IRBP) (Bos taurus)
- Sequence (P12661 23-1286): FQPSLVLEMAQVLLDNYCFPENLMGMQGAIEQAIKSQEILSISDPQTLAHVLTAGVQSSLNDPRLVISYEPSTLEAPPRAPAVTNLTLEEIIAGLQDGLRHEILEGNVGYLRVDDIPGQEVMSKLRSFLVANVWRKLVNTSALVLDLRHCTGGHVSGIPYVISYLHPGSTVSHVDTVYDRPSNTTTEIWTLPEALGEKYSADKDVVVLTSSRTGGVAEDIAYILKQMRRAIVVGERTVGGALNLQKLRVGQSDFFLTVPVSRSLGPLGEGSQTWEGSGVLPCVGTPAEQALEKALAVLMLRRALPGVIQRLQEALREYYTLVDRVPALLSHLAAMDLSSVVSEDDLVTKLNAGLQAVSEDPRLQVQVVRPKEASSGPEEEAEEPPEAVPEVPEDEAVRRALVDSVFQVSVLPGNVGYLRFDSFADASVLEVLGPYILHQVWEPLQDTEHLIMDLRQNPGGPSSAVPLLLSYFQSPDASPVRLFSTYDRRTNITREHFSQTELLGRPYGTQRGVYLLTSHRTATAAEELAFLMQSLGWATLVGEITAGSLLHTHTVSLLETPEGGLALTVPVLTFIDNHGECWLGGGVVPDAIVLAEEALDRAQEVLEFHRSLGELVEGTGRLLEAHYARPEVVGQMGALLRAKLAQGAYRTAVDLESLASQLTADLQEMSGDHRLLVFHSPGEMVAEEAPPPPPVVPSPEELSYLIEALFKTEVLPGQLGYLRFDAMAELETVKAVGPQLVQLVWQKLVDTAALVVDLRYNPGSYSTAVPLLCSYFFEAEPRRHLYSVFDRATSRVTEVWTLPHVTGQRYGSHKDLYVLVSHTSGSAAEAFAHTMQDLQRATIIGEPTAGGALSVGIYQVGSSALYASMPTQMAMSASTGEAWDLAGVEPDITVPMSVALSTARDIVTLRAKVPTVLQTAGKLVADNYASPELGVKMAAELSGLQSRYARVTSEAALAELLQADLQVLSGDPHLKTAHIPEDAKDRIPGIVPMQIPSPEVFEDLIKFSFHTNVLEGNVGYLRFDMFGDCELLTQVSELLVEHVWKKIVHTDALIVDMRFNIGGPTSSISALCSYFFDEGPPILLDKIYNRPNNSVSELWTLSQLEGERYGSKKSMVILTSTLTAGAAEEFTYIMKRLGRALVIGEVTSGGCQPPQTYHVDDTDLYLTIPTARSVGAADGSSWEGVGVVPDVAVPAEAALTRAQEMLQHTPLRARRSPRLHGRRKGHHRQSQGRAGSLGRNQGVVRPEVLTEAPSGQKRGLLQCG
- assay.protocol: Surface plasmon resonance
- Parameters: species or system bovine
- recorded.conditions: SPR, 25°C, n=3; ligand:IRBP binding stoichiometry
Give measured Stoichiometry (No. of sites) for each item. Keep answers brief.
Numbers only.

CCCCCCCCCCCCCCCC(=O)O: 3.7
CC1=C(/C=C/C(C)=C/C=C/C(C)=C/C=C/C=C(C)/C=C/C=C(C)/C=C/C2=C(C)CCCC2(C)C)C(C)(C)CCC1: 3.1
CC1=C(/C=C/C(C)=C/C=C/C(C)=C/C=C/C=C(C)/C=C/C=C(C)/C=C/C2=C(C)C[C@@H](O)CC2(C)C)C(C)(C)C[C@H](O)C1: 3.3
CC1=C(/C=C/C(C)=C/C=C/C(C)=C/C=C/C=C(C)/C=C/C=C(C)/C=C/C2=C(C)C(=O)[C@@H](O)CC2(C)C)C(C)(C)C[C@H](O)C1=O: 3.4
CCCCCCCCCCCCCCCCCC(=O)O: 3.7
CCCCC/C=C\C/C=C\C/C=C\C/C=C\CCCC(=O)O: 3.8

Field: Stoichiometry (No. of sites). Fill in for each record below.
1. CC/C=C\C/C=C\C/C=C\C/C=C\C/C=C\CCCC(=O)O [Eicosapentaenoic acid (EPA), Eicosapentaenoic acid]
2. CCCCCCCCCCCCCCCCCCCC(=O)O
3. CC1=C(/C=C/C(C)=C/C=C/C(C)=C/C(=O)O)C(C)(C)CCC1 [all -trans -retinoic acid]

1. 3.4
2. 3.7
3. 3.4
